Hey, just so you know, these numbers are from ChEMBL document CHEMBL4118033.

# System: KM12
# Experimental Details: Antiproliferative activity against human KM12 cells at 10 uM incubated for 48 hrs by sulforhodamine B assay
# Assay type: functional, cell-based
Calls of active or inactive are those of the source. The calls are words filed in the database; no cut-off is given here.
Property: Activity

• O=C1C[C@H]2O[C@H]([C@@H](O)c3ccccc3)[C@H](O)[C@H]2O1 = Active
• O=C(/C=C/c1ccccc1)O[C@H](c1ccccc1)[C@@H]1O[C@@H]2CC(=O)O[C@@H]2[C@H]1O = Active
• CC(=O)O[C@@H](C)[C@H]1O[C@H]2CC(=O)O[C@H]2[C@@H]1O = inactive
• CC(=O)O[C@H](C)[C@@H]1O[C@@H]2CC(=O)O[C@@H]2[C@H]1O = inactive
• CC(=O)O[C@H](C)[C@H]1O[C@H]2CC(=O)O[C@H]2[C@@H]1O = inactive
• CC(=O)O[C@@H](C)[C@@H]1O[C@@H]2CC(=O)O[C@@H]2[C@H]1O = inactive
• O=C1C[C@H]2O[C@H]([C@H](O)c3ccccc3)[C@H](O)[C@H]2O1 = Active

###

# Tested on: A549
# Experimental Details: Antiproliferative activity against human A549/ATCC cells at 10 uM incubated for 48 hrs by sulforhodamine B assay
# Type: functional, cell-based
Calls of active or inactive are those of the source. The rule behind the calls is not given here.
Classes used: YES for active, NO for inactive

- CC(=O)O[C@@H](C)[C@@H]1O[C@@H]2CC(=O)O[C@@H]2[C@H]1O: NO
- CC(=O)O[C@H](C)[C@H]1O[C@H]2CC(=O)O[C@H]2[C@@H]1O: NO
- CC(=O)O[C@H](C)[C@@H]1O[C@@H]2CC(=O)O[C@@H]2[C@H]1O: NO
- O=C1C[C@H]2O[C@H]([C@@H](O)c3ccccc3)[C@H](O)[C@H]2O1: YES
- O=C1C[C@H]2O[C@H]([C@H](O)c3ccccc3)[C@H](O)[C@H]2O1: YES
- CC(=O)O[C@@H](C)[C@H]1O[C@H]2CC(=O)O[C@H]2[C@@H]1O: NO
- O=C(/C=C/c1ccccc1)O[C@H](c1ccccc1)[C@@H]1O[C@@H]2CC(=O)O[C@@H]2[C@H]1O: YES

###

# System: ACHN
# Experimental Details: Antiproliferative activity against human ACHN cells at 10 uM incubated for 48 hrs by sulforhodamine B assay
# Type: functional, cell-based
Calls of active or inactive are those of the source. No cut-off for these calls is given here.
Classes used: label 1 (active), label 0 (inactive)

• CC(=O)O[C@H](C)[C@H]1O[C@H]2CC(=O)O[C@H]2[C@@H]1O = label 0
• CC(=O)O[C@@H](C)[C@H]1O[C@H]2CC(=O)O[C@H]2[C@@H]1O = label 0
• O=C(/C=C/c1ccccc1)O[C@H](c1ccccc1)[C@@H]1O[C@@H]2CC(=O)O[C@@H]2[C@H]1O = label 1
• O=C1C[C@H]2O[C@H]([C@@H](O)c3ccccc3)[C@H](O)[C@H]2O1 = label 1
• CC(=O)O[C@@H](C)[C@@H]1O[C@@H]2CC(=O)O[C@@H]2[C@H]1O = label 0
• O=C1C[C@H]2O[C@H]([C@H](O)c3ccccc3)[C@H](O)[C@H]2O1 = label 1
• CC(=O)O[C@H](C)[C@@H]1O[C@@H]2CC(=O)O[C@@H]2[C@H]1O = label 0

###

# Test system: MOLT-4
# Experimental Details: Antiproliferative activity against human MOLT4 cells at 10 uM incubated for 48 hrs by sulforhodamine B assay
# Type: functional, cell-based
Active and inactive are the calls of the source. The calls are words filed in the database; no cut-off is given here.
Classes used: True for active, False for inactive

• CC(=O)O[C@@H](C)[C@@H]1O[C@@H]2CC(=O)O[C@@H]2[C@H]1O = False
• O=C(/C=C/c1ccccc1)O[C@H](c1ccccc1)[C@@H]1O[C@@H]2CC(=O)O[C@@H]2[C@H]1O = True
• CC(=O)O[C@H](C)[C@@H]1O[C@@H]2CC(=O)O[C@@H]2[C@H]1O = False
• O=C1C[C@H]2O[C@H]([C@@H](O)c3ccccc3)[C@H](O)[C@H]2O1 = True
• CC(=O)O[C@@H](C)[C@H]1O[C@H]2CC(=O)O[C@H]2[C@@H]1O = False
• CC(=O)O[C@H](C)[C@H]1O[C@H]2CC(=O)O[C@H]2[C@@H]1O = False
• O=C1C[C@H]2O[C@H]([C@H](O)c3ccccc3)[C@H](O)[C@H]2O1 = True

###

# Tested on: SK-MEL-2
# Experimental Details: Antiproliferative activity against human SK-MEL-2 cells at 10 uM incubated for 48 hrs by sulforhodamine B assay
# Assay type: functional, cell-based
Activity calls are given as the source filed them. The rule behind the calls is not given here.
Classes used: active, inactive

* O=C(/C=C/c1ccccc1)O[C@H](c1ccccc1)[C@@H]1O[C@@H]2CC(=O)O[C@@H]2[C@H]1O | active
* CC(=O)O[C@H](C)[C@@H]1O[C@@H]2CC(=O)O[C@@H]2[C@H]1O | inactive
* O=C1C[C@H]2O[C@H]([C@@H](O)c3ccccc3)[C@H](O)[C@H]2O1 | active
* CC(=O)O[C@H](C)[C@H]1O[C@H]2CC(=O)O[C@H]2[C@@H]1O | inactive
* CC(=O)O[C@@H](C)[C@H]1O[C@H]2CC(=O)O[C@H]2[C@@H]1O | inactive
* O=C1C[C@H]2O[C@H]([C@H](O)c3ccccc3)[C@H](O)[C@H]2O1 | active
* CC(=O)O[C@@H](C)[C@@H]1O[C@@H]2CC(=O)O[C@@H]2[C@H]1O | inactive

###

# System: OVCAR-4
# Experimental Details: Antiproliferative activity against human OVCAR4 cells at 10 uM incubated for 48 hrs by sulforhodamine B assay
# Format: functional, cell-based
The source made the active and inactive calls. No cut-off for these calls is given here.
Property: Activity

• O=C(/C=C/c1ccccc1)O[C@H](c1ccccc1)[C@@H]1O[C@@H]2CC(=O)O[C@@H]2[C@H]1O = Active
• O=C1C[C@H]2O[C@H]([C@H](O)c3ccccc3)[C@H](O)[C@H]2O1 = Active
• CC(=O)O[C@H](C)[C@H]1O[C@H]2CC(=O)O[C@H]2[C@@H]1O = inactive
• CC(=O)O[C@@H](C)[C@H]1O[C@H]2CC(=O)O[C@H]2[C@@H]1O = inactive
• CC(=O)O[C@@H](C)[C@@H]1O[C@@H]2CC(=O)O[C@@H]2[C@H]1O = inactive
• O=C1C[C@H]2O[C@H]([C@@H](O)c3ccccc3)[C@H](O)[C@H]2O1 = Active
• CC(=O)O[C@H](C)[C@@H]1O[C@@H]2CC(=O)O[C@@H]2[C@H]1O = inactive

###

# Test system: HL-60(TB)
# Experimental Details: Antiproliferative activity against human HL-60(TB) cells at 10 uM incubated for 48 hrs by sulforhodamine B assay
# Assay type: functional, cell-based
Activity calls are given as the source filed them. The calls are words filed in the database; no cut-off is given here.
Classes used: active, inactive

* CC(=O)O[C@@H](C)[C@@H]1O[C@@H]2CC(=O)O[C@@H]2[C@H]1O | inactive
* CC(=O)O[C@H](C)[C@H]1O[C@H]2CC(=O)O[C@H]2[C@@H]1O | inactive
* O=C(/C=C/c1ccccc1)O[C@H](c1ccccc1)[C@@H]1O[C@@H]2CC(=O)O[C@@H]2[C@H]1O | active
* CC(=O)O[C@H](C)[C@@H]1O[C@@H]2CC(=O)O[C@@H]2[C@H]1O | inactive
* CC(=O)O[C@@H](C)[C@H]1O[C@H]2CC(=O)O[C@H]2[C@@H]1O | inactive
* O=C1C[C@H]2O[C@H]([C@@H](O)c3ccccc3)[C@H](O)[C@H]2O1 | active
* O=C1C[C@H]2O[C@H]([C@H](O)c3ccccc3)[C@H](O)[C@H]2O1 | active

###

# Test system: NCI/ADR-RES
# Experimental Details: Antiproliferative activity against human NCI/ADR-RES cells at 10 uM incubated for 48 hrs by sulforhodamine B assay
# Assay type: functional, cell-based
Calls of active or inactive are those of the source. The rule behind the calls is not given here.
Classes used: True for active, False for inactive

* O=C(/C=C/c1ccccc1)O[C@H](c1ccccc1)[C@@H]1O[C@@H]2CC(=O)O[C@@H]2[C@H]1O | True
* O=C1C[C@H]2O[C@H]([C@H](O)c3ccccc3)[C@H](O)[C@H]2O1 | True
* CC(=O)O[C@@H](C)[C@H]1O[C@H]2CC(=O)O[C@H]2[C@@H]1O | False
* CC(=O)O[C@H](C)[C@H]1O[C@H]2CC(=O)O[C@H]2[C@@H]1O | False
* CC(=O)O[C@H](C)[C@@H]1O[C@@H]2CC(=O)O[C@@H]2[C@H]1O | False
* O=C1C[C@H]2O[C@H]([C@@H](O)c3ccccc3)[C@H](O)[C@H]2O1 | True
* CC(=O)O[C@@H](C)[C@@H]1O[C@@H]2CC(=O)O[C@@H]2[C@H]1O | False
